assay: IGROV1 ovarian cancer cell cytotoxicity, dose response, PAX8 inhibitor project, plate reader, dry powder samples (AID 743043); conditions: series mostly up to 35 µM;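 note: more negative means fewer viable cells or more cytotoxicity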
Potency and affinity values are given separately. Records with an inconclusive call do not appear. Calls of active or inactive are those of the source. The rule behind the calls is not given here.
Reported Endpoint: outcome

O=C(C[C@H]1C[C@@H]2c3cc(NS(=O)(=O)c4ccc(F)cc4)ccc3O[C@@H]2[C@@H](CO)O1)N1CCc2ccccc2C1 | inactive
O=C(Nc1ccccc1)N1CCCCN2[C@H](CO)[C@H](c3ccc(C#Cc4ccccc4)cc3)[C@H]2C1 | inactive
COc1cccc(S(=O)(=O)N(C)C[C@@H]2OCc3ccccc3-c3c(n(C)c4ccccc34)C(=O)N([C@H](C)CO)C[C@@H]2C)c1 | inactive
C[C@@H]1CN([C@H](C)CO)S(=O)(=O)c2ccc(C#Cc3ccc(F)cc3)cc2O[C@H]1CN(C)C(=O)NC1CCCCC1 | inactive
